- MEASUREMENT NOTES: Acute toxicity, oral, LD50 (Litchfield and Wilcoxon)
- CONDITION LABEL: mouse, in vivo, fasted male mice, confidence limits p=95% in brackets
Documented LD50 across a set of compounds

Below, 2 compounds whose answers are already recorded.
COMPOUND	REPORTED ENDPOINT	MEASUREMENT
CC1CCc2cc(C(O)C(C)NCCc3ccccc3)ccc2S1 (stereo not drawn)	LD50	~2750 mg/kg
CC(NCCCCc1ccccc1)C(OC(=O)C1CCCC1)c1ccc2c(c1)CCS2 (stereo not drawn)	LD50	~1750 mg/kg

Okay, now this compound:
// CCC(NCCOc1ccccc1)C(O)c1ccc2c(c1)CCS2 (stereo not drawn) : LD50 value = > 4000 mg/kg
